Biological target: Mushroom tyrosinase (Agaricus bisporus, UniProt O42713+Q00024+C7FF04+C7FF05)
Test: Inhibition of mushroom tyrosinase using L-Dopa as substrate preincubated for 10 mins followed by substrate addition and measured after 20 mins
assay endpoint: IC50 (mg/L)

smiles text | unit info | IC50
O=c1cc(-c2ccc(Cl)cc2)oc2cc(Br)cc(Br)c12 | mg/L | 4.2

a = O=C(O)c1ccc(-c2cc(=O)c3c(Br)cc(Br)cc3o2)cc1
b = O=c1c(O)c(-c2ccc([N+](=O)[O-])cc2)oc2cc(Br)cc(Br)c12
Higher IC50 between a and b ? Kindly give the label for the entry you pick.
a

1 = O=c1c(O)c(-c2ccc(Cl)cc2)oc2cc(Br)cc(Br)c12
2 = COc1ccc(-c2cc(=O)c3c(Br)cc(Br)cc3o2)cc1OC
Higher IC50 between 1 and 2 ? Kindly give the label for the entry you pick.
1

* * *

Target: Mushroom tyrosinase (Agaricus bisporus, UniProt O42713+Q00024+C7FF04+C7FF05)
Assay: Inhibition of mushroom tyrosinase using L-Dopa as substrate […]
assay endpoint: IC50 (µM)

For orientation, consider the following solved cases.
smiles text | system under test | unit info | IC50
CCN1CCN(CC(=O)Nc2ccc3oc(-c4ccc(C(C)(C)C)cc4)nc3c2)CC1 | Mushroom tyrosinase (Agaricus bisporus, UniProt O42713+Q00024+C7FF04+C7FF05) | µM | 8.14
O=C(O)S[C@H]1N=N[C@@H](NC(=S)Nc2cccc(C(F)(F)F)c2)S1 | Mushroom tyrosinase (Agaricus bisporus, UniProt O42713+Q00024+C7FF04+C7FF05) | µM | 6.13

P = COc1ccc(/C=C2\NC(=S)NC2=O)c(OC)c1
Q = O=C(Nc1cccc(Cl)c1)Nc1ccc2c(c1)S(=O)(=O)NC2=O
Higher IC50 between P and Q ? Kindly give the label for the entry you pick.
Q

* * *

Target: Mushroom tyrosinase (Agaricus bisporus, UniProt O42713+Q00024+C7FF04+C7FF05)
Assay: Inhibition of mushroom tyrosinase using L-Dopa as substrate preincubated for 10 mins followed by substrate addition and measured after 20 mins
assay endpoint: IC50 (µg/mL)

A = O=c1cc(-c2ccc(F)cc2)oc2cc(Br)cc(Br)c12
B = O=c1c(O)c(-c2ccco2)oc2cc(Br)cc(Br)c12
Sorting ascending by IC50, which comes first: A or B ? Kindly give the label for the entry you pick.
B

* * *

Molecular target: Mushroom tyrosinase (Agaricus bisporus, UniProt O42713+Q00024+C7FF04+C7FF05)
Test: Inhibition of mushroom tyrosinase using L-Dopa as substrate preincubated for 10 mins followed by substrate addition and measured after 20 mins
assay endpoint: IC50 (µg/mL)

For orientation, consider the following solved cases.
smiles text | readout value
O=c1c(O)c(-c2cccs2)oc2cc(Br)cc(Br)c12 | 3.01
O=C(O)c1ccc(-c2oc3cc(Br)cc(Br)c3c(=O)c2O)cc1 | 4.26
Cc1ccc(-c2cc(=O)c3c(Br)cc(Br)cc3o2)cc1 | 7.2
O=c1c(O)c(-c2ccc(F)cc2)oc2cc(Br)cc(Br)c12 | 2.36
Cc1ccc(-c2oc3cc(Br)cc(Br)c3c(=O)c2O)cc1 | 0.126

P = Cc1ccc(-c2oc3cc(Br)cc(Br)c3c(=O)c2O)c(C)c1
Q = CN(C)c1ccc(-c2cc(=O)c3c(Br)cc(Br)cc3o2)cc1
R = O=c1cc(-c2ccc([N+](=O)[O-])cc2)oc2cc(Br)cc(Br)c12
S = O=c1c(O)c(-c2c[nH]c3ccccc23)oc2cc(Br)cc(Br)c12
T = O=c1cc(-c2cccc([N+](=O)[O-])c2)oc2cc(Br)cc(Br)c12
Please list these in order of increasing IC50. Thank you! Ranked list of labels, please, in the requested order.
R, Q, T, P, S
(R: 0.27 µg/mL, Q: 0.57 µg/mL, T: 3.28 µg/mL, P: 7.57 µg/mL, S: 23.58 µg/mL)
